Origin of measurements: PubChem BioAssay (NCI)

Tested on: NCI/ADR-RES ovarian
EXPERIMENT_NOTES: NCI tumour cell line growth inhibition, 48 h
MEASURED_ATTRIBUTE: GI50

// worked examples, GI50 included
{"columns": ["CHEM_SMILES", "GI50"],
 "data": [
  ["CNCCNc1nc2ccccc2c2c(=O)c3cccc(OC)c3sc12", "1.23 µM"],
  ["COC(=O)c1oc2c(C(=O)/C=C/c3ccc(OC)cc3)c(OCCCN3CCCCC3)ccc2c1C", "2.31 µM"],
  ["Cn1c(=O)c(Cc2ccc(F)cc2F)cc2cnc(NC3CCOCC3)nc21", "> 15.5 µM"]
]}

Lab request: please report GI50 under test system NCI/ADR-RES ovarian for O=C1NC(=NCCc2ccccc2Cl)S/C1=C\c1ccc2ncccc2c1 7.73 µM

Follow-up entry: C=C1C(=O)O[C@H]2[C@H]1CC/C(Cn1cc(CCC)nn1)=C\CC[C@@]1(C)O[C@@H]21 15.2 µM

Follow-up entry: Cc1cc(S(N)(=O)=O)c(S/C(=N\NS(=O)(=O)c2ccc(Cl)cc2)c2ccc(Cl)cc2)cc1Cl > 100 µM

Follow-up entry: COc1cc(-c2ccc(-c3ccc(C(=N)N)s3)s2)cc(OC)c1OC 3.44 µM

Follow-up entry: CN(C)CCn1cc(-c2ccc3c(Nc4ccc(CC(=O)Nc5cccc(F)c5)cc4)ncnc3c2)cn1 > 10 µM

* * *

Items are presented alongside their recorded TGI.
Test system: MCF7 breast
EXPERIMENT_NOTES: NCI tumour cell line growth inhibition, 48 h
Where a SMILES comes first, the peptide text is derived from it. [ ]: non-standard residue; d: D form. The star is where a group is joined. ξ: configuration not given here. X37 = O=C(OCc1ccccc1)[C@@H]1CCC[C@H]1N*; Fmoc = O=C(OCC1c2ccccc2-c2ccccc21)*; ξW = NC(Cc1c[nH]c2ccccc12)C(=O)O; ξF = NC(Cc1ccccc1)C(=O)O; Boc = CC(C)(C)OC(=O)*; ξK = NCCCCC(N)C(=O)O; ξT = CC(O)C(N)C(=O)O; tBu = CC(C)(C)*

{"columns": ["COMPOUND", "TGI"],
 "data": [
  ["CC(OC(C)(C)C)C(NC(=O)C(CCCCNC(=O)OC(C)(C)C)NC(=O)C(Cc1c[nH]c2ccccc12)NC(=O)C(Cc1ccccc1)NC(=O)OCC1c2ccccc2-c2ccccc21)C(=O)NC(Cc1ccccc1)C(=O)N[C@@H]1CCC[C@H]1C(=O)OCc1ccccc1 (some centres not stated) (Fmoc-[ξF][ξW][ξK](Boc)[ξT](tBu)[ξF]-X37)", "> 100 µM"]
]}

Lab request: please report TGI under test system MCF7 breast for CC1=C(C)C(=O)C(C(C)C2=C(C)C(=O)C(C)=C(C)C2=O)=C(C)C1=O > 100 µM

Follow-up entry: Cc1cc(S(N)(=O)=O)c(S/C(=N\NS(=O)(=O)c2ccc(Cl)cc2)c2ccc(Cl)cc2)cc1Cl > 100 µM

Follow-up entry: NS(=O)(=O)c1ccc(-n2nc(-c3ccc(Cl)cc3)cc2C2=CC(=O)C=CC2=O)cc1 69.9 µM

Follow-up entry: CC(=O)Nc1ccc(C(=O)N[C@@H]2C(=O)N3[C@@H]2SC(C)(C)[C@@H]3C(=O)O)cn1 > 100 µM

Follow-up entry: O=c1[nH]c2ccc(CC(=S)N3CCN(c4ccccc4)CC3)cc2s1 > 100 µM

Follow-up entry: Cc1ccccc1NC(=O)NC(CC(N)=O)c1ccc2c(c1)nc(-c1cccc(Oc3ccc(C(C)(C)C)cc3)c1)n2CCCN1CCCCC1C (configuration not stated) 3.54 µM

* * *

Test system: MDA-MB-435
Reply using exactly one outcome from active, inactive

Assay result, entry CC(O)CN(CCN(CC(C)O)CC(C)O)CC(C)O.O=[N+]([O-])O.[Cu+2] (centres undefined) — outcome? inactive

Follow-up entry: COc1cc2c(cc1-c1c(C)noc1C)ncc1nc(C3CCCCC3)n(C3CCC(OC(F)F)CC3)c12 (centres undefined) inactive

Follow-up entry: Cn1cccc1-c1cc(-c2ccc(Br)cc2)nc(N)c1C#N inactive

Follow-up entry: Cc1ccc(Cl)cc1Nc1nc(C(F)(F)F)ccc1C(=O)Oc1ccc(Cl)cc1 inactive

Follow-up entry: C[n+]1c2ccccc2c(NC2CCNCC2)c2[nH]c3ccccc3c21 inactive

Follow-up entry: C=C1C(=O)O[C@H]2[C@H]1CC/C(COC(=O)CCC(=O)OC/C1=C/CC[C@@]3(C)O[C@H]3[C@H]3OC(=O)C(=C)[C@@H]3CC1)=C\CC[C@@]1(C)O[C@@H]21 inactive

Follow-up entry: COc1ccc(C2CC(c3cc(OC)c(OC)c(OC)c3)=NN2)cc1 (centres undefined) inactive

Follow-up entry: CNCCNc1nc2ccccc2c2c(=O)c3cccc(OC)c3sc12 inactive

Follow-up entry: O=C1c2cccnc2-c2nc(-c3ccc([N+](=O)[O-])cc3)cc3c2c1nc1ccccc13 inactive

Follow-up entry: COc1ccc(-n2c(N)c(C(=O)NCCN3CCOCC3)c3nc4ccccc4nc32)cc1OC inactive

Follow-up entry: Cc1ccc(/C=C(\C#N)n2nnc3cc(F)c(F)cc32)cc1 active

* * *

Items are presented alongside their recorded TGI.
Tested on: MCF7 breast
EXPERIMENT_NOTES: NCI tumour cell line growth inhibition, 48 h
Could you give me the number in µM? Just the number is fine.

// worked examples, TGI included
{"columns": ["MOLECULE", "READOUT_NUMBER"],
 "data": [
  ["CCCCc1cc2c(cc1O)CCC1C2CC[C@@]2(C)C1CC[C@@H]2O (some centres undefined)", 30.4],
  ["NS(=O)(=O)c1ccc(CNC(=S)NC(=O)Nc2ccc(Cl)c(Cl)c2)cc1", 39],
  ["COc1cc(O)c(C(=O)/C=C/c2ccc(O)cc2)cc1Oc1ccc(C(=O)/C=C/c2ccc(O)cc2)c(O)c1", 13.5]
]}

# next molecule below
What does the record list as TGI for CCCCOC(=O)N[C@H]1CCc2cc(OC)c(OC)c(OC)c2-c2ccc(SC)c(=O)cc21 ? 26

* * *

Items are presented alongside their recorded TGI.
System: SF-268 CNS
EXPERIMENT_NOTES: NCI tumour cell line growth inhibition, 48 h
Could you give me the number in µM? Just the number is fine.

What does the record list as TGI for Cc1ccc(/C=C(\C#N)n2nnc3cc(F)c(F)cc32)cc1 ? 20.9

Follow-up entry: O=[N+]([O-])c1ccc2[nH]cc(-c3c4ccccc4cc4[nH]c5ccc([N+](=O)[O-])cc5c34)c2c1 9.57

Follow-up entry: CC(C)C[C@H](NC(=O)[C@@H](Cc1cccc2ccccc12)NC(=O)N1CCOCC1)B(O)O 15.1

* * *

System: NCI-H460 lung
EXPERIMENT_NOTES: NCI tumour cell line growth inhibition, 48 h
MEASURED_ATTRIBUTE: TGI

// worked examples, TGI included
{"columns": ["MOLECULE", "RESULT"],
 "data": [
  ["CCOc1ccc(NC(=O)C2=C(C)NC(C)=C(C(=O)Nc3ccc(OCC)cc3)C2c2ccc([N+](=O)[O-])cc2)cc1", "> 100 µM"],
  ["N#C/C(=C/N1CCN(C(=O)c2ccco2)C1=S)C(N)=O", "50.7 µM"],
  ["Cc1c2c(nn1-c1ccc(S/N=C3\\SCC(=O)CN3c3ccccc3)cc1)-c1ccccc1CC2", "> 50 µM"]
]}

What does the record list as TGI for Cn1c(=O)c(F)c(Nc2ccc(I)cc2F)c2c(=O)n(C[C@@H](O)CO)cnc21 ? > 100 µM

Follow-up entry: O=C1C(c2ccccc2)=C(c2ccccc2)C(c2ccccc2)/C1=C1\C(=O)C(c2ccccc2)=C(c2ccccc2)C1c1ccccc1 (centres undefined) > 100 µM

Follow-up entry: COc1ccc(N(C(=O)OC(C)(C)C)[C@@H]2C(C)=C[C@H]([S@@](=O)c3ccc(C)cc3)[C@@H]3C(=O)N(C)C(=O)[C@@H]32)cc1 > 100 µM

Follow-up entry: N#CC(C#N)=C1NC(=O)C(c2ccccc2)C(=O)N1 (centres undefined) > 100 µM

Follow-up entry: O=C1/C(=C/c2ccc(O)cc2)CCC1CNc1ccc(Cl)cc1 (centres undefined) 23 µM

Follow-up entry: C[n+]1c2ccccc2c(NC2CCNCC2)c2[nH]c3ccccc3c21 1.53 µM

* * *

System: UACC-62 melanoma
EXPERIMENT_NOTES: NCI tumour cell line growth inhibition, 48 h
Items are presented alongside their recorded TGI.

{"columns": ["COMPOUND", "TGI"],
 "data": [
  ["CC(=O)OCc1ccc(-c2nc(C#N)c(N)o2)o1", "> 10 µM"],
  ["CC(=O)O[C@H]1CC[C@@]2(C)C(=CC[C@@H]3C2CC[C@]2(C)Nc4oncc4CC32)C1 (stereo not given in full)", "99 µM"],
  ["CCCCCOP(=O)(OCCCCC)C(NC(C)=O)(C(=O)OCC)C(F)(F)F (stereo not given)", "> 100 µM"],
  ["CCOC(=O)c1cc(-c2ccc(OC)c(OC)c2)cn1C", "> 10 µM"],
  ["C[C@H](NC(=O)OC1C2C=CC(O)C1CC2)c1ccccc1 (stereo not given in full)", "> 100 µM"]
]}

Lab request: please report TGI under test system UACC-62 melanoma for C(=N\NC1=NCCCN1)/c1ccc(-c2cn3cc(/C=N/NC4=NCCCN4)ccc3n2)cc1 > 100 µM

Follow-up entry: COc1cc(-c2ccc(-c3ccc(C(=N)N)s3)s2)cc(OC)c1OC 3.17 µM
